Experiment: in vitro
Conditions: C57BL/6, mouse, primary brown adipocytes

- molecule: "Cc1[nH]c2ccccc2c1C(c1cccs1)N1CCCC1 (stereo not shown) [Compound U2]"
  CC50 at 48 h: "> 125 µM"
- molecule: "Cc1[nH]c2ccccc2c1C(c1cccs1)N1CCNCC1 (stereo not shown) [Compound U9]"
  CC50 at 48 h: "> 125 µM"
- molecule: "Cc1[nH]c2ccccc2c1C(c1cccs1)N1CCN(c2ccccc2)CC1 (stereo not shown) [Compound U4]"
  CC50 at 48 h: "> 125 µM"
- molecule: "CCOC(=O)C1CCN(C(c2cccs2)c2c(C)[nH]c3ccccc23)CC1 (stereo not shown) [Compound U7]"
  CC50 at 48 h: "> 125 µM"
- molecule: "Cc1[nH]c2ccccc2c1C(c1cccs1)N1CCCCC1 (stereo not shown) [Compound U6]"
  CC50 at 48 h: "> 125 µM"
- molecule: "Cc1[nH]c2ccccc2c1C(c1cccs1)N1CCOCC1 (stereo not shown) [Compound U5]"
  CC50 at 48 h: "> 125 µM"
- molecule: "CCOC(=O)N1CCN(C(c2cccs2)c2c(C)[nH]c3ccccc23)CC1 (stereo not shown) [Compound U1]"
  CC50 at 48 h: "> 125 µM"
- molecule: "CCOC(=O)N1CCN(C(c2ccc(C)s2)c2c(C)[nH]c3ccccc23)CC1 (stereo not shown) [Compound U16]"
  CC50 at 48 h: "> 125 µM"
- molecule: "Cc1[nH]c2ccccc2c1C(c1cccs1)N1CCN(C(=O)C(C)C)CC1 (stereo not shown) [Compound U11]"
  CC50 at 48 h: "> 125 µM"
- molecule: "Cc1[nH]c2ccccc2c1C(c1cccs1)N1CCN(C(=O)c2ccccc2)CC1 (stereo not shown) [Compound U13]"
  CC50 at 48 h: "> 125 µM"
- molecule: "Cc1[nH]c2ccccc2c1C(c1cccs1)N1CCN(C)CC1 (stereo not shown) [Compound U3]"
  CC50 at 48 h: "> 125 µM"
- molecule: "Cc1[nH]c2ccccc2c1C(c1cccs1)N1CCN(Cc2ccccc2)CC1 (stereo not shown)"
  CC50 at 48 h: "> 125 µM"
- molecule: "CC(=O)N1CCN(C(c2cccs2)c2c(C)[nH]c3ccccc23)CC1 (stereo not shown) [Compound U10]"
  CC50 at 48 h: "> 125 µM"
